- System: HL-60(TB) leukemia
- Measurement Protocol: NCI tumour cell line growth inhibition, 48 h
Measurement Kind: TGI

- COc1cccc(N2C(=O)CS(=O)(=O)C2c2cccc(Oc3ccccc3)c2)c1 (centres undefined): > 100 µM
- Cn1c2c(c3ccccc31)CCN1C(=O)C34CCCC3CC21S4 (centres undefined): > 100 µM
- COC(=O)C1=CCON(c2ccccc2)C1c1ccccc1 (centres undefined): 61.7 µM
- COc1ccc(OC)c(-c2cc(-c3ccccc3)nn2-c2ccc(S(=O)(=O)NC(C)=O)cc2)c1: > 100 µM
- CC(O)CNC1=CC(=O)C(=O)c2ccccc21 (centres undefined): 84.4 µM
- CON(C)C(=O)C(C)NC(=O)OCc1ccccc1 (centres undefined): > 100 µM
- N#Cc1ccc(-c2nc(C#N)c(N)o2)cc1: > 10 µM
- Cc1cc(Cl)ccc1NC(=O)C(=O)Cc1nc2ccc(C(=O)c3ccccc3)cc2[nH]c1=O: > 100 µM
- COc1ccc(C(=O)N2c3ccccc3Sc3ccccc32)c(F)c1: > 100 µM
- COc1ccc2nc(-c3ccccc3)cc(Nc3cccc(/C(C)=N\O)c3)c2c1: > 100 µM
- Cc1ccc2c(c1C)CC1(Cc3c(C)ccc(C)c3C1=O)C2=O (centres undefined): > 100 µM
- CC(=O)N(CCN)CCN: > 10 µM
- CSc1ccc(C2=Nn3c(nnc3-c3ccc(F)c(Cl)c3)SC2)cc1: > 100 µM
- C[N+]1(CCN=C=NC2CCCCC2)CCOCC1: > 100 µM
- Cc1cccc(NS(=O)(=O)c2ccc(N=Nc3c(O)c(C(=O)O)cc4ccccc34)cc2)n1: > 100 µM
- COc1ccc(C2SC(N)=Nc3c2c(C)nn3C(=O)c2ccc(Cl)cc2)cc1OC (centres undefined): > 10 µM
- Cc1nc(SCC(N)=O)c2sc(=S)n(-c3ccccc3)c2n1: > 10 µM
- c1c(N2CCOCC2)ssc1=[N+]1CCOCC1: > 100 µM
- CC(C)c1ccc2nc3ccc(C(=O)NCCN(C)C)cn3c(=O)c2c1: 42.1 µM
- O=CN1CCN(C(=O)c2ccco2)C1=S: 8.94 µM
- O=C1c2cccnc2S(=O)(=O)N1c1ccc([N+](=O)[O-])cc1: > 100 µM
- O=C(CCc1nc(=S)[nH][nH]1)NC12CC3CC(CC(C3)C1)C2: > 100 µM
- C=C1CC(COc2ccc3c(C)c(C)c(=O)oc3c2C)(c2ccccc2)OC1=O (centres undefined): 5.54 µM
- CCC1(Br)C(=O)NC(=O)N(C2CC(O)C(CO)O2)C1N=[N+]=[N-] (centres undefined): > 100 µM
- COc1cc(/C=C2\CN(C)CC3=C2Nc2nc(SC)[nH]c(=O)c2C3c2cc(OC)c(OC)c(OC)c2)cc(OC)c1OC (centres undefined): 9.66 µM
- Clc1ccccc1NN(Cc1ccccn1)c1ccccc1Cl: 44 µM
- COc1ccc(-n2nnc3c(sc4ccccc43)c2=O)cc1: > 100 µM
- COc1cc2c3cc1Oc1c(OC)c(OC)cc4c1C(Cc1ccc(O)c(c1)Oc1ccc(cc1)CC3N(C)CC2)CN(C)C4 (centres undefined): 6.11 µM
- Cn1cc(C2=C(c3cn(C)c4ccc(N)cc34)C(=O)NC2=O)c2ccccc21: > 25 µM
- CC(C)=CCC12Cc3ccc(O)cc3C(C(C)CN1)C2C (centres undefined): > 100 µM
- Cc1cccc(NC(=O)c2sc3nc4c(cc3c2N)CCCC4)c1C: 0.941 µM
- COc1cc2c3c(cc(Cl)nc3c1OC)C(=O)C(=O)N2: 3.56 µM
- Cc1nc2c(n1CC(C)(C)C)C(=O)c1ccccc1C2=O: > 100 µM
- N#Cc1nc(C2CCC(=O)O2)oc1N (centres undefined): > 100 µM
- CC(=O)N(C)c1ccc(Nc2ccnc3ccc4nn(C)nc4c23)cc1: 38.8 µM
- CCc1nc(N)nc(N)c1-c1ccc([N+](=O)[O-])c(NCc2ccccc2)c1: 18.7 µM
- CCN(CCCCCCCCCCN1CC(=O)N(CCCCCCCCCCN(CC)Cc2ccccc2OC)CC1=O)Cc1ccccc1OC: 3.6 µM
- O=C1[C@@H](c2ccc(Cl)cc2)[C@H]2CC=C[C@H]2N1O: > 100 µM
- O=C(c1ccccc1)c1c(CC(O)c2cccnc2)n(C(=O)c2ccccc2)c2ccccc12 (centres undefined): 49 µM
- Nc1nc2c(ncn2Cc2ccccc2CCO)c(=O)[nH]1: > 100 µM
- COc1cc(Nc2ccnc(N3CCN(c4ccnc5cc(Cl)ccc45)CC3)n2)cc(OC)c1: > 100 µM
- O=C1CS/C(=N/N=C/c2cn(Cc3ccc(Cl)cc3Cl)c3ccccc23)N1: > 100 µM
- CCCCCCCCCCCCNC(=O)CCC(NC(=O)c1ccc(N(C)Cc2cnc3nc(N)nc(N)c3n2)cc1)C(=O)NCCCCCCCCCCCC (centres undefined): 87.1 µM
- O=C(C(=O)c1ccc(Cc2ccc(C(=O)C(=O)c3ccccc3)cc2)cc1)c1ccccc1: > 100 µM
